Molecular target: Microphthalmia-associated transcription factor (Homo sapiens, UniProt O75030)
Sequence (O75030 whole entry): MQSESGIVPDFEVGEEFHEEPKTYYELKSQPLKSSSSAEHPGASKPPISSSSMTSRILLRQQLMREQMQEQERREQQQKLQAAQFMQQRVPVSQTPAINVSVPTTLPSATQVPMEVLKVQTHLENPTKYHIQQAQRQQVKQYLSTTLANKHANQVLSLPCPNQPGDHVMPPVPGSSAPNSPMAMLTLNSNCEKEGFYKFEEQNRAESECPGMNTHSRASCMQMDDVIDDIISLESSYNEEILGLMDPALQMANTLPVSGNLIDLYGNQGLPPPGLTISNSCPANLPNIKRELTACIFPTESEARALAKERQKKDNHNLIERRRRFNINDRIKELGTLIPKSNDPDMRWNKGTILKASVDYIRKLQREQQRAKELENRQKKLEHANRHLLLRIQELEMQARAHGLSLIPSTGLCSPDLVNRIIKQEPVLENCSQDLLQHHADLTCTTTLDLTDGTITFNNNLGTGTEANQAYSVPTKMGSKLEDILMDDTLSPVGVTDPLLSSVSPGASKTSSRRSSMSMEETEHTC
Assay: TRPM1 promoter luciferase signal decrease, dose response, MITF inhibitor project, cell-based, SK-MEL-5, cherry-picked, set 3 (AID 493073);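 also: SK-MEL-5 melanoma cells with luciferase driven by the MITF target TRPM1 promoter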
Type: functional
The source made the active and inactive calls.
recorded_metric: AC50

Consider the reported AC50 for these compounds:
compound	endpoint_value
CN1CCC(N(C)C(=O)/C=C/c2cn(-c3ccccc3)nc2-c2cccs2)CC1	9.82 µM (active)
CCOc1ccc(-n2c(C)cc(C(=O)CCl)c2C)cc1	4.59 µM (active)
COCCN(C(=O)CCl)C(C(=O)NC1CCCCC1)c1ccccc1C (centres undefined)	17.8 µM (active)

Lab note: next compound to report on.
// AC50 (Microphthalmia-associated transcription factor (Homo sapiens, UniProt O75030)) for "N#C/C(=C(/O)CCl)c1nc2ccccc2[nH]1" = 4.6 µM (active)

---

IC50 values for the compounds below.
Molecular target: Leucine aminopeptidase (Plasmodium falciparum 3D7, UniProt Q8IL11)
Sequence (Q8IL11 whole entry): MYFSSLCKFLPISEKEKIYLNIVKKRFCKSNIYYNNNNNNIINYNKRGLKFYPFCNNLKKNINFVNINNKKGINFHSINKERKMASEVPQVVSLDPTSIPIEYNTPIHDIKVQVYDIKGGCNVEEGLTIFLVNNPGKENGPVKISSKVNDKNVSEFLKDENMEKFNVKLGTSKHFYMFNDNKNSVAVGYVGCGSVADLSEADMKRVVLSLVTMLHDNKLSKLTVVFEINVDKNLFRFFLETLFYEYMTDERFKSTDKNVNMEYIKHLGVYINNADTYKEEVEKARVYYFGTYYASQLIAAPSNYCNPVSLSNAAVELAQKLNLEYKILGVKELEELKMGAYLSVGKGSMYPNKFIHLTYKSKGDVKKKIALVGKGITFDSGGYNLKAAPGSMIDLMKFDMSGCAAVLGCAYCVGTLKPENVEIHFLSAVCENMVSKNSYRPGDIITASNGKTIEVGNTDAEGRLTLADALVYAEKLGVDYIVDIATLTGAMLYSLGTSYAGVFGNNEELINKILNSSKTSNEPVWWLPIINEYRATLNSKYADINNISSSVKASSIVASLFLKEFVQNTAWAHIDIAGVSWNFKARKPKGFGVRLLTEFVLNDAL
Assay: P. falciparum M17LAP inhibitors, primary screen, biochemical, fluorogenic H-Leu-NHMec substrate, 1536-well (AID 1619)
Format: functional
The source made the active and inactive calls.

// IC50 (Leucine aminopeptidase (Plasmodium falciparum 3D7, UniProt Q8IL11)) for "CCCc1nc2ccccc2c(=O)n1/N=C/c1ccc(O)c(O)c1" = 24.2 µM (active)

// IC50 (Leucine aminopeptidase (Plasmodium falciparum 3D7, UniProt Q8IL11)) for "CCS(=O)(=O)C1=NN2C(=N)/C(=C\c3ccc(O)c(OC)c3)C(=O)N=C2S1" = 35.2 µM (active)

// IC50 (Leucine aminopeptidase (Plasmodium falciparum 3D7, UniProt Q8IL11)) for "CCCCCOc1ccc(NC(=O)CCCC(=O)O)cc1" = 11.3 µM (active)

// IC50 (Leucine aminopeptidase (Plasmodium falciparum 3D7, UniProt Q8IL11)) for Cc1ccc(C)c(NC(=O)C2CC=CCC2C(=O)O)c1 (stereo not given) = 18.6 µM (active)

// IC50 (Leucine aminopeptidase (Plasmodium falciparum 3D7, UniProt Q8IL11)) for CCOc1cc(C2C(C#N)=C(N)Oc3[nH]nc(-c4ccccc4)c32)ccc1O (stereo not given) = 77.1 µM (active)

---

Molecular target: Protein skinhead-1 (Caenorhabditis elegans)
Sequence (P34707 whole entry): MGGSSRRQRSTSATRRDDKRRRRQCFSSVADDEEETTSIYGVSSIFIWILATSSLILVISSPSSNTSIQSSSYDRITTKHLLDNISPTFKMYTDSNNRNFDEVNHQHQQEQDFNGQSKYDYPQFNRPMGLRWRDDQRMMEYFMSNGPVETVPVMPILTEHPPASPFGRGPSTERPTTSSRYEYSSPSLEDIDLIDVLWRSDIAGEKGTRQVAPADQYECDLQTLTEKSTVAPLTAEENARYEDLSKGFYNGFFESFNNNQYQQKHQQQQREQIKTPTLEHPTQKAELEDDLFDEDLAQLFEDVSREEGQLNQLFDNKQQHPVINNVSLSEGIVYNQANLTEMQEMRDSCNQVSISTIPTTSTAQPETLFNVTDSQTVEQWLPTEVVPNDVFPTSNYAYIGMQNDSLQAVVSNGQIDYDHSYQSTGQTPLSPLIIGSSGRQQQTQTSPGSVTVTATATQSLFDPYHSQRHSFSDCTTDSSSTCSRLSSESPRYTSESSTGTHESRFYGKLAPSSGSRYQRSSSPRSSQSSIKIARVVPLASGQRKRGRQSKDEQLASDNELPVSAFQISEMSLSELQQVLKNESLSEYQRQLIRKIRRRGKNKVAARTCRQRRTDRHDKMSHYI
Assay type: functional
The source made the active and inactive calls.
// allowed return values: YES (active), NO (inactive)

Here are 5 compounds together with their reported answers.
compound	category_label
CSc1nc(-c2ccco2)nn1C(=O)c1ccc(C)cc1	NO
O=C(Nc1ccc(Cl)cc1)C(c1ccccc1)N(CCO)CCO (stereo not drawn)	NO
O=C(Nc1ccc(-c2nc3cccnc3s2)cc1)c1ccco1	NO
Brc1ccc(-c2nc(-c3cccnc3)no2)o1	YES
CCOC(=O)Nc1nc(-c2ccc(F)cc2F)cs1	NO

Now look at this entry.
Problem: Look up the recorded call for "c1ccc2nc(-c3nc4ccccc4o3)ccc2c1" in this test.
Result: YES
